Test system: VL51-Idel (idelalisib-resistant VL51) cells
Type: cell-based, human
Details: 72 h
Peptide text beside a SMILES is read from it.
MEASURE: IC50
# output: number + unit

# COMPOUND, IC50
records = [
    ("CC[C@H](C)[C@H](NC(=O)CNC(=O)[C@H](CC(N)=O)NC(=O)[C@H](CC(C)C)NC(=O)[C@@H](NC(=O)[C@H](CCCNC(=N)N)NC(=O)CNC(=O)[C@@H](NC(=O)[C@@H](NC(=O)[C@@H]1CCCN1C(=O)[C@H](Cc1ccccc1)NC(=O)[C@@H](N)Cc1ccccc1)C(C)C)[C@@H](C)CC)[C@@H](C)CC)C(=O)N[C@@H](CC(C)C)C(N)=O [Temporin G] (H-FFPVIGRILNGIL-NH2; N-terminus assumed)", "28.2 µM"),
    ("CC[C@H](C)[C@H](NC(=O)CNC(=O)[C@H](CO)NC(=O)[C@H](CC(C)C)NC(=O)[C@@H](NC(=O)[C@H](CCCNC(=N)N)NC(=O)CNC(=O)[C@@H](NC(=O)[C@H](CC(C)C)NC(=O)[C@@H]1CCCN1C(=O)[C@H](CC(C)C)NC(=O)[C@@H](N)Cc1ccccc1)[C@@H](C)CC)C(C)C)C(=O)N[C@@H](CC(C)C)C(N)=O [Temporin A] (H-FLPLIGRVLSGIL-NH2; N-terminus and C-terminus assumed)", "27.5 µM"),
]

Now let's try a different one.
I'm curious: which IC50 was measured for CC[C@H](C)[C@H](NC(=O)[C@@H]1CCCN1C(=O)[C@H](CC(C)C)NC(=O)[C@@H](N)CC(C)C)C(=O)N[C@H](C(=O)NCC(=O)N[C@@H](CC(N)=O)C(=O)N[C@@H](CC(C)C)C(=O)N[C@@H](CC(C)C)C(=O)N[C@@H](CCCCN)C(=O)N[C@@H](CO)C(=O)N[C@@H](CC(C)C)C(=O)N[C@@H](CC(C)C)C(N)=O)C(C)C [Temporin B] (H-LLPIVGNLLKSLL-NH2; N-terminus and C-terminus assumed) tested on VL51-Idel (idelalisib-resistant VL51) cells? 31.6 µM

* * *

System: VL51 cells
Format: cell-based, human
Details: 72 h
Peptide text beside a SMILES is read from it.
MEASURE: IC50 (µM)
Respond numerically; units are µM and should not be typed.

# query: IC50 of entry CC[C@H](C)[C@H](NC(=O)CNC(=O)[C@H](CC(N)=O)NC(=O)[C@H](CC(C)C)NC(=O)[C@@H](NC(=O)[C@H](CCCNC(=N)N)NC(=O)CNC(=O)[C@@H](NC(=O)[C@@H](NC(=O)[C@@H]1CCCN1C(=O)[C@H](Cc1ccccc1)NC(=O)[C@@H](N)Cc1ccccc1)C(C)C)[C@@H](C)CC)[C@@H](C)CC)C(=O)N[C@@H](CC(C)C)C(N)=O [Temporin G] (H-FFPVIGRILNGIL-NH2; N-terminus assumed) 35.2

* * *

Tested on: VL51-Idel (idelalisib-resistant VL51) cells
Assay type: cell-based, human
Settings: 72 h
Peptide text beside a SMILES is read from it.
MEASURE: pIC50
pIC50 (log units): -log10 of the concentration in mol/L.

Reported pIC50 for CC[C@H](C)[C@H](NC(=O)[C@H](CCCNC(=N)N)NC(=O)CNC(=O)[C@H](CC(C)C)NC(=O)[C@H](Cc1ccccc1)NC(=O)[C@H](CCCCN)NC(=O)[C@H](CO)NC(=O)[C@H](Cc1ccccc1)NC(=O)[C@H](Cc1c[nH]c2ccccc12)NC(=O)[C@H](CCC(N)=O)NC(=O)[C@@H](NC(=O)[C@@H](N)Cc1ccccc1)C(C)C)C(=O)N[C@@H](CC(C)C)C(N)=O [Temporin L] (H-FVQWFSKFLGRIL-NH2) : what is it? 5.19

* * *

Examples of compounds with documented IC50 follow.
System: Karpas1718-Idel (idelalisib-resistant Karpas1718) cells
Type: cell-based, human
Conditions: 72 h
Peptide text beside a SMILES is read from it.
Please state the figure in µM; there is no need to write the unit.

Find the measured IC50: item CC[C@H](C)[C@H](NC(=O)CNC(=O)[C@H](CO)NC(=O)[C@H](CC(C)C)NC(=O)[C@@H](NC(=O)[C@H](CCCNC(=N)N)NC(=O)CNC(=O)[C@@H](NC(=O)[C@H](CC(C)C)NC(=O)[C@@H]1CCCN1C(=O)[C@H](CC(C)C)NC(=O)[C@@H](N)Cc1ccccc1)[C@@H](C)CC)C(C)C)C(=O)N[C@@H](CC(C)C)C(N)=O [Temporin A] (H-FLPLIGRVLSGIL-NH2; N-terminus and C-terminus assumed) , target or system Karpas1718-Idel (idelalisib-resistant Karpas1718) cells. 49

Test system Karpas1718-Idel (idelalisib-resistant Karpas1718) cells; read-out IC50; what value for CC[C@H](C)[C@H](NC(=O)[C@@H]1CCCN1C(=O)[C@H](CC(C)C)NC(=O)[C@@H](N)CC(C)C)C(=O)N[C@H](C(=O)NCC(=O)N[C@@H](CC(N)=O)C(=O)N[C@@H](CC(C)C)C(=O)N[C@@H](CC(C)C)C(=O)N[C@@H](CCCCN)C(=O)N[C@@H](CO)C(=O)N[C@@H](CC(C)C)C(=O)N[C@@H](CC(C)C)C(N)=O)C(C)C [Temporin B] (H-LLPIVGNLLKSLL-NH2; N-terminus and C-terminus assumed) ? 71.4

Reported IC50 for Karpas1718-Idel (idelalisib-resistant Karpas1718) cells, given CC[C@H](C)[C@H](NC(=O)CNC(=O)[C@H](CC(N)=O)NC(=O)[C@H](CC(C)C)NC(=O)[C@@H](NC(=O)[C@H](CCCNC(=N)N)NC(=O)CNC(=O)[C@@H](NC(=O)[C@@H](NC(=O)[C@@H]1CCCN1C(=O)[C@H](Cc1ccccc1)NC(=O)[C@@H](N)Cc1ccccc1)C(C)C)[C@@H](C)CC)[C@@H](C)CC)C(=O)N[C@@H](CC(C)C)C(N)=O [Temporin G] (H-FFPVIGRILNGIL-NH2; N-terminus assumed) ? 101

IC50 of CC[C@H](C)[C@H](NC(=O)[C@H](CCCNC(=N)N)NC(=O)CNC(=O)[C@H](CC(C)C)NC(=O)[C@H](Cc1ccccc1)NC(=O)[C@H](CCCCN)NC(=O)[C@H](CO)NC(=O)[C@H](Cc1ccccc1)NC(=O)[C@H](Cc1c[nH]c2ccccc12)NC(=O)[C@H](CCC(N)=O)NC(=O)[C@@H](NC(=O)[C@@H](N)Cc1ccccc1)C(C)C)C(=O)N[C@@H](CC(C)C)C(N)=O [Temporin L] (H-FVQWFSKFLGRIL-NH2) on Karpas1718-Idel (idelalisib-resistant Karpas1718) cells? 10.1

* * *

Consider the following compounds and their measured pIC50 readings.
Test system: VL51-Copa (copanlisib-resistant VL51) cells
Assay type: cell-based, human
Conditions: 72 h
Peptide text beside a SMILES is read from it.
Formally, pIC50 is defined as -log10 of the concentration c, with c in mol/L.

// known answers, use as guide
# COMPOUND, TGT, pIC50
measured = [
    ("CC[C@H](C)[C@H](NC(=O)[C@H](CCCNC(=N)N)NC(=O)CNC(=O)[C@H](CC(C)C)NC(=O)[C@H](Cc1ccccc1)NC(=O)[C@H](CCCCN)NC(=O)[C@H](CO)NC(=O)[C@H](Cc1ccccc1)NC(=O)[C@H](Cc1c[nH]c2ccccc12)NC(=O)[C@H](CCC(N)=O)NC(=O)[C@@H](NC(=O)[C@@H](N)Cc1ccccc1)C(C)C)C(=O)N[C@@H](CC(C)C)C(N)=O [Temporin L] (H-FVQWFSKFLGRIL-NH2)", "VL51-Copa (copanlisib-resistant VL51) cells", 5.13),
    ("CC[C@H](C)[C@H](NC(=O)CNC(=O)[C@H](CC(N)=O)NC(=O)[C@H](CC(C)C)NC(=O)[C@@H](NC(=O)[C@H](CCCNC(=N)N)NC(=O)CNC(=O)[C@@H](NC(=O)[C@@H](NC(=O)[C@@H]1CCCN1C(=O)[C@H](Cc1ccccc1)NC(=O)[C@@H](N)Cc1ccccc1)C(C)C)[C@@H](C)CC)[C@@H](C)CC)C(=O)N[C@@H](CC(C)C)C(N)=O [Temporin G] (H-FFPVIGRILNGIL-NH2; N-terminus assumed)", "VL51-Copa (copanlisib-resistant VL51) cells", 4.58),
    ("CC[C@H](C)[C@H](NC(=O)[C@@H]1CCCN1C(=O)[C@H](CC(C)C)NC(=O)[C@@H](N)CC(C)C)C(=O)N[C@H](C(=O)NCC(=O)N[C@@H](CC(N)=O)C(=O)N[C@@H](CC(C)C)C(=O)N[C@@H](CC(C)C)C(=O)N[C@@H](CCCCN)C(=O)N[C@@H](CO)C(=O)N[C@@H](CC(C)C)C(=O)N[C@@H](CC(C)C)C(N)=O)C(C)C [Temporin B] (H-LLPIVGNLLKSLL-NH2; N-terminus and C-terminus assumed)", "VL51-Copa (copanlisib-resistant VL51) cells", 4.32),
]

Then there is this compound:
Please look up its pIC50: CC[C@H](C)[C@H](NC(=O)CNC(=O)[C@H](CO)NC(=O)[C@H](CC(C)C)NC(=O)[C@@H](NC(=O)[C@H](CCCNC(=N)N)NC(=O)CNC(=O)[C@@H](NC(=O)[C@H](CC(C)C)NC(=O)[C@@H]1CCCN1C(=O)[C@H](CC(C)C)NC(=O)[C@@H](N)Cc1ccccc1)[C@@H](C)CC)C(C)C)C(=O)N[C@@H](CC(C)C)C(N)=O [Temporin A] (H-FLPLIGRVLSGIL-NH2; N-terminus and C-terminus assumed) 4.31

Origin of the recorded values: paper PMC13239830
